Kindly state CC50 at 4 days for each of the entries shown.
test: Compound cytotoxicity, XTT-based colorimetric assay; type: cell-based; settings: human, uninfected MT2 cells, day 4, XTT
Give just the number in µM; leave the unit off.

Entry `CCN(C(=O)[C@H](Cc1cc(F)cc(F)c1)NC(=O)NS(=O)(=O)N[C@@H](Cc1cc(F)cc(F)c1)C(=O)N(CC)c1ccc(OC(F)F)cc1)c1ccc(OC(F)F)cc1` ; CC50 at 4 days = 24.6

Entry `COc1ccc(N(C)C(=O)[C@H](Cc2ccccc2)NC(=O)NC(=O)N[C@@H](Cc2ccccc2)C(=O)N(C)c2ccc(OC)cc2)cc1` ; CC50 at 4 days = 10.5

Entry `COc1ccc(N(C)C(=O)[C@H](Cc2ccccc2)NC(=O)c2cc(C(=O)N[C@@H](Cc3ccccc3)C(=O)N(C)c3ccc(OC)cc3)on2)cc1` ; CC50 at 4 days = 1.5

Entry `COc1ccc(N(C)C(=O)[C@H](Cc2cc(F)cc(F)c2)Nc2ccnc(N[C@@H](Cc3cc(F)cc(F)c3)C(=O)N(C)c3ccc(OC)cc3)n2)cc1` ; CC50 at 4 days = 12.4

Entry `C=CCN(C(=O)[C@H](Cc1cc(F)cc(F)c1)NC(=O)c1ccncc1C(=O)N[C@@H](Cc1cc(F)cc(F)c1)C(=O)N(CC=C)c1ccc(OC)cc1)c1ccc(OC)cc1` ; CC50 at 4 days = 14

Entry `COc1ccc(-n2ccnc2[C@H](Cc2ccccc2)NC(=O)c2cccc(C(=O)N[C@@H](Cc3ccccc3)c3nccn3-c3ccc(OC)cc3)c2)cc1` ; CC50 at 4 days = 73.9

Entry `COc1ccc(N(C)C(=O)[C@H](Cc2ccccc2)NC(=O)Cn2c(=O)n(CC(=O)N[C@@H](Cc3ccccc3)C(=O)N(C)c3ccc(OC)cc3)c3c(Cl)cccc32)cc1` ; CC50 at 4 days = 39.9

Entry `CN(C(=O)[C@H](Cc1cc(F)cc(F)c1)NC(=O)NS(=O)(=O)N[C@@H](Cc1cc(F)cc(F)c1)C(=O)N(C)c1ccc(OC(F)(F)F)cc1)c1ccc(OC(F)(F)F)cc1` ; CC50 at 4 days = 8.2

Entry `Cc1cc(N(C)C(=O)[C@H](Cc2ccccc2)NC(=O)NS(=O)(=O)N[C@@H](Cc2ccccc2)C(=O)N(C)c2ccc(F)c(C)c2)ccc1F` ; CC50 at 4 days = 64.7

Entry `COc1ccc(N(C)C(=O)[C@H](Cc2ccccc2)NC(=O)[C@H](C)NC(=O)N[C@@H](C)C(=O)N[C@@H](Cc2ccccc2)C(=O)N(C)c2ccc(OC)cc2)cc1` ; CC50 at 4 days = 31

Entry `CN(C(=O)[C@H](Cc1cc(F)cc(F)c1)NC(=O)NS(=O)(=O)N[C@@H](Cc1cc(F)cc(F)c1)C(=O)N(C)c1ccc(N2CCOCC2)cc1)c1ccc(N2CCOCC2)cc1` ; CC50 at 4 days = 78.9

Entry `COc1ccc(N(C)C(=O)[C@H](Cc2cc(F)cc(F)c2)NS(=O)(=O)CS(=O)(=O)N[C@@H](Cc2cc(F)cc(F)c2)C(=O)N(C)c2ccc(OC)cc2)cc1` ; CC50 at 4 days = 12.5
